Molecular target: DGKzeta (Homo sapiens, UniProt Q13574)
Sequence (Q13574 whole entry): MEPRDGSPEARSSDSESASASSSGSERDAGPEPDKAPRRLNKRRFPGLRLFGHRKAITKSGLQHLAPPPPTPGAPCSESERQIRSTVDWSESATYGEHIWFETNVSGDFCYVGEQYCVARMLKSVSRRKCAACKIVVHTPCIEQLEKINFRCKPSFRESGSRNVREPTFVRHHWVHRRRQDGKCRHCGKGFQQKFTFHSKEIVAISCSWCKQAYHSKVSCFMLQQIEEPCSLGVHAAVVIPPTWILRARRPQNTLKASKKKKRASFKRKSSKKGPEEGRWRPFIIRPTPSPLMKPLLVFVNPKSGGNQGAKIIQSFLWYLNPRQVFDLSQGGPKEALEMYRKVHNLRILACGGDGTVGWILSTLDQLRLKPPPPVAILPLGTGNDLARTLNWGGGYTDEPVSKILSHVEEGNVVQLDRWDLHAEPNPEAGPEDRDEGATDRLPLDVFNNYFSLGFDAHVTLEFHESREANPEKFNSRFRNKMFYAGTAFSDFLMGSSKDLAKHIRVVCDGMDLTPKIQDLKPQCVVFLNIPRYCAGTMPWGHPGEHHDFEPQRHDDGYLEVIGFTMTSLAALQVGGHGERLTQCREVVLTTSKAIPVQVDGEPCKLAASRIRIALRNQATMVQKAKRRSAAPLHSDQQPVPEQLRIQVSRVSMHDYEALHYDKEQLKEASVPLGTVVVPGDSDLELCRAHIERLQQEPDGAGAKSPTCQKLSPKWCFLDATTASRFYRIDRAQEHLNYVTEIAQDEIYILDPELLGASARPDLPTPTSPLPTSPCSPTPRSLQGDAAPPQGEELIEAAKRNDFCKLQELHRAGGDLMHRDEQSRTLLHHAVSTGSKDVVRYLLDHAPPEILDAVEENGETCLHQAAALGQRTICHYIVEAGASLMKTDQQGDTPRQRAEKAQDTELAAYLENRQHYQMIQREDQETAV
Experiment: In vitro DGK inhibition assay (ADP-Glo, liposomes), DGKzeta
Type: biochemical
Design: hDGKzeta(1-928)-N-His; His (N); made in house; host or cells: Sf21 insect cells (baculovirus)
Conditions: 2 nM DGK ζ, 50 μM ATP, 125 uM DLG in liposomes, 1 hour reaction
Response field label takes fulfilled when IC50 is strictly below 1000 nM and not fulfilled in all other cases.

CC(C)(c1nc(-c2cc3c(cc2F)S(=O)(=O)C[C@H](N)C(=O)N3Cc2ccc(OCc3nc(C(F)(F)F)no3)cc2)no1)S(C)(=O)=O ... fulfilled
CN(C)S(=O)(=O)C(C)(C)c1nnc(-c2ccc3c(c2)N(Cc2ccc(-c4ccc(C(F)(F)F)cc4)cc2)C(=O)[C@@H](N)CS3(=O)=O)o1 ... not fulfilled
CC(C)(c1nnc(-c2ccc3c(c2)N(Cc2ccc(-c4ccc(F)cn4)cc2)C(=O)[C@@H](N)CS3(=O)=O)o1)S(C)(=O)=O ... not fulfilled
CC(C)(c1nnc(-c2cc3c(cc2F)S(=O)(=O)C[C@H](N)C(=O)N3Cc2ccc(Oc3ccccc3)cc2)o1)S(C)(=O)=O ... fulfilled
CS(=O)(=O)C1(c2nnc(-c3ccc4c(c3)N(Cc3ccc(Oc5ccccc5)cc3)C(=O)[C@@H](N)CS4(=O)=O)o2)CC1 ... not fulfilled
CC(C)(c1nnc(-c2ccc3c(c2)N(Cc2ccc(-c4ccc(OC(F)(F)F)cn4)cc2)C(=O)[C@@H](N)CS3(=O)=O)o1)S(C)(=O)=O ... fulfilled
CC(C)(c1nc(-c2cc3c(cc2F)S(=O)(=O)C[C@H](N)C(=O)N3Cc2ccc(-c3noc(C4CC4)n3)cc2)no1)S(C)(=O)=O ... fulfilled
CC(C)(c1nnc(-c2ccc3c(c2)N(Cc2ccc(-c4ccc(C(F)(F)F)cc4)nc2)C(=O)[C@@H](N)CS3(=O)=O)o1)S(C)(=O)=O ... not fulfilled
CCC(CC)Oc1ccc(CN2C(=O)[C@@H](N)CS(=O)(=O)c3ccc(-c4nnc(C(C)(C)S(C)(=O)=O)o4)cc32)cc1 ... not fulfilled
CC(C)(c1nnc(-c2ccc3c(c2)N(Cc2ccc(-c4ccc(C(F)(F)F)cc4)cc2)C(=O)[C@@H](N)CS3(=O)=O)o1)S(C)(=O)=O ... not fulfilled

*Q* Criterion: IC50 strictly below 1000 nM. Is it met by `CC(C)(c1nnc(-c2ccc3c(c2)N(Cc2ccc(Oc4ccccc4)cc2)C(=O)[C@@H](N)CS3(=O)=O)o1)S(=O)(=O)C1CC1` ?
*A* fulfilled

*Q* Criterion: IC50 strictly below 1000 nM. Is it met by `CC(C)(c1nnc(-c2ccc3c(c2)N(Cc2ccc(OC4CCCC4)cc2)C(=O)[C@@H](N)CS3(=O)=O)o1)S(C)(=O)=O` ?
*A* fulfilled

* * *

Target: UniProt P23743
Sequence (P23743 whole entry): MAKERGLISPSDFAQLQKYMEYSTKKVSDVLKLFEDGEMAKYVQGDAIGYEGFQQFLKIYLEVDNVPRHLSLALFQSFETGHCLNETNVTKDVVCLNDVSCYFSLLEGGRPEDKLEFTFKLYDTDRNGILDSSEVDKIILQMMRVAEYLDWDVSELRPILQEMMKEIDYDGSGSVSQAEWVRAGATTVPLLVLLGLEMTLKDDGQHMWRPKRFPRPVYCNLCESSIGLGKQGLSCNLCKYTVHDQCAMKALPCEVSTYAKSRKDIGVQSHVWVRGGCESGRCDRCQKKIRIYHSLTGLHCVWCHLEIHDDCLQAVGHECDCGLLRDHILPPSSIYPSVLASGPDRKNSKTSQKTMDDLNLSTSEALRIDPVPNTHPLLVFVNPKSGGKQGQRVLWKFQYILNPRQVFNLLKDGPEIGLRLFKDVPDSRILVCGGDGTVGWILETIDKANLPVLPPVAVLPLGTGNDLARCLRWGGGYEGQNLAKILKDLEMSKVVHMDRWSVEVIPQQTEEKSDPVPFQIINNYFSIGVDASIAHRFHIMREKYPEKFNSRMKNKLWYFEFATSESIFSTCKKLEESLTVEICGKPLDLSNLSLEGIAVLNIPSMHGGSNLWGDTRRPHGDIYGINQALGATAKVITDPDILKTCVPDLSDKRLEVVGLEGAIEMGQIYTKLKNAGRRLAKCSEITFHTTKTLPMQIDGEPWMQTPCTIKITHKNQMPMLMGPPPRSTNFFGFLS
Test: In vitro DGK inhibition assay (ADP-Glo, liposomes), DGKalpha
Assay type: biochemical
Design: hDGKalpha(1-735)-N-His; His (N); made in house; host or cells: Sf21 insect cells (baculovirus)
Settings: 4 nM DGK α, 25 μM ATP, 125 uM DLG in liposomes, 1 hour reaction
Catalogue of compounds with associated pIC50
Quick note: pIC50 values are minus log10 of concentrations in mol/L.

CC(C)(c1nnc(-c2ccc3c(c2)N(Cc2ccc(Oc4ccccc4)cc2)C(=O)[C@@H](N)CS3(=O)=O)o1)S(C)(=O)=O ... 5.51
CS(=O)(=O)C1(c2nnc(-c3ccc4c(c3)N(Cc3ccc(Oc5ccccc5)cc3)C(=O)[C@@H](N)CS4(=O)=O)o2)CC1 ... 4.97
CC(C)(c1nnc(-c2ccc3c(c2)N(Cc2ccc(-c4ccc(C(F)(F)F)cc4)nc2)C(=O)[C@@H](N)CS3(=O)=O)o1)S(C)(=O)=O ... 4.57
CN(Cc1ccccc1)c1ccc(CN2C(=O)[C@@H](N)CS(=O)(=O)c3ccc(-c4nnc(C(C)(C)S(C)(=O)=O)o4)cc32)cc1 ... 6.56

Then there is this compound:
*Q* Specify pIC50 for `CC(C)(c1nnc(-c2ccc3c(c2)N(Cc2ccc(Oc4cccc(OC(F)F)c4)cc2)C(=O)[C@@H](N)CS3(=O)=O)o1)S(C)(=O)=O` and stop.
*A* 5.96
